Reference for the values: paper PMC13181761

measured_on: T1, human C3b (human, UniProt P01024 749-1663)
T1 construct: Complement C3 beta chain, human; cut product of the C3 precursor; C3b alpha chain (C3 alpha chain after release of C3a), human; Two-chain fragment of C3; amine-coupled to the chip in SPR, free in the cryo-EM sample; also called hC3b; plasma-purified C3b; source: bought: Complement Technology (plasma-purified)
assay_method_text: SPR; Biacore T200; human C3b amine-coupled; single-cycle kinetics, 5 increasing concentrations (0.5-40 nM), final dissociation 100-240 min; 25 °C, HBST pH 7.4; global Langmuir 1:1 fit; mean of 3 experiments
stated_conditions: both partners purified
Bridges are numbered along the chain shown (N, C = ends). Where no end group is shown, it is not given here. [ ]: non-standard residue; d: D form. Trp(1-Me) = Cn1cc(C[C@H](N)C(=O)O)c2ccccc21; Nva(3-Et) = CCC(CC)[C@H](N)C(=O)O; NMeI = CC[C@H](C)[C@H](NC)C(=O)O; Sar = CNCC(=O)O
quantity_kind: Kd (nM)

1) [dY]IC[Nva(3-Et)][Trp(1-Me)]QDW[Sar]AHRC[NMeI] (disulfide 3-13 (inferred)) [Cp40 Dea3 analog] : 13.6
